- ASSAY REMARKS: BSK_BE3C_SRB: Viability Assessment in the BioMAP Diversity Plus: BE3C Assay (AID 2283028);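 note: measured 24 h after chemical dosing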
- CONDITION LABEL: primary human bronchial epithelial cells
Active and inactive are the calls of the source. Rule for the calls: active = hit-call score of the fitted dose curve at least 0.9, where 1 is the maximum; inactive = score below 0.9.
Log the outcome using a class from yes (1) for active, no (0) for inactive

Use these answered entries as a reference point.
CCCCOC(=O)c1ccc(O)cc1 ... no (0)
CCCCCCCCCCCCO ... yes (1)
c1ccc(C[n+]2cccc3ccccc32)cc1 ... no (0)
Cc1ncc(CO)c(CO)c1O ... no (0)
CCCCCCCCCC(=O)O ... no (0)
Cc1occc1C(=O)Nc1ccc(C(=O)N2CCC(F)(F)/C(=C\C(=O)N3CCC(N4CCCCC4)CC3)c3ccccc32)cc1 ... no (0)
CC/C(=C(/CC)c1ccc(O)cc1)c1ccc(O)cc1 ... yes (1)
CCOC(=O)O[C@H](C)OC(=O)c1ccc2c(c1)cc(C(=O)NC1CCN(C(C)C)CC1)n2Cc1cc(-c2ccc(Cl)s2)on1 ... yes (1)

Task item: How did this test come out for CCCCCCCCCCCO ?
Reply: no (0)

Task item: How did this test come out for Cc1ccc(C(C)C)cc1 ?
Reply: no (0)
